system-name: T1, d3-wt (human EGFR domain 3) (human, UniProt P00533 337-504, limits assumed)
T1 construct: Expressed in E. coli from pET-28a(+) and purified on a HisTrap column; Monomeric fraction used; also called wild type d3; wild-type d3 domain
test-description: SPR (Biacore X100), HB-EGF immobilized on CM5, multi-cycle kinetics
readout-label: pKd
FYI, pKd means -log10 of a concentration in mol per litre.

Q: Report measured pKd; entry is HB-EGF (R&D Systems 259-HE-050/CF) (ligand, UniProt Q99075 63-148, looked up, Immobilized on a CM5 chip by amine coupling) DLQEADLDLLRVTLSSKPQALATPNKEEHGKRKKKGKGLGKKRDPCLRKYKDFCIHGECKYVKELRAPSCICHPGYHGERCHGLSL
A: 6.58
